system: Platelet; assay: Inhibition of ADP-induced platelet aggregation in human platelet-rich plasma at 1 mM by turbidimetric method; format: functional; settings: Homo sapiens, Platelet, Plasma
recorded_metric: IC50 (µM)
Write down the numeric answer in µM and omit the unit.

Prompt: Send back Platelet IC50 of C=CC[S+]([O-])C[C@H](N)C(=O)O (stereo partly specified) [ALLIIN] only.
Completion: 60
